Taken from ChEMBL document CHEMBL4396923.

- EXPERIMENT: Stability in human plasma assessed as parent compound remaining at 4 hrs
- Type: ADME, cell-free
- CONDITION SUMMARY: read-out: Stability
RECORDED ENDPOINT: remaining at 4 h (%)

{"SUBSTANCE SMILES": "Cc1ccc(C[C@H](N)/C(F)=C/CC(=O)NCC(=O)N[C@@H](Cc2ccccc2)C(=O)N[C@@H](CC(C)C)C(=O)O)cc1", "RECORDED ENDPOINT": "remaining at 4 h", "VALUE UNIT": "%", "NUMERIC READOUT": 68}

----------
Dear all, this message contains Ki results, target or system Delta-type opioid receptor (Homo sapiens, UniProt P41143).
RECORDED ENDPOINT: Ki (nM)

{"SUBSTANCE SMILES": "CC(C)C[C@H](NC(=O)[C@H](Cc1ccccc1)NC1(CNC(=O)CNC(=O)[C@@H](N)Cc2ccc(O)cc2)COC1)C(=O)O.O=C(O)C(F)(F)F", "RECORDED ENDPOINT": "Ki", "VALUE UNIT": "nM", "NUMERIC READOUT": 157}
{"SUBSTANCE SMILES": "CC(C)C[C@H](NC1([C@H](Cc2ccccc2)NC(=O)CNC(=O)CNC(=O)[C@@H](N)Cc2ccc(O)cc2)COC1)C(=O)O.O=C(O)C(F)(F)F", "RECORDED ENDPOINT": "Ki", "VALUE UNIT": "nM", "NUMERIC READOUT": 43}

----------
- TARGET DESC: Mu-type opioid receptor (Homo sapiens)
- Sequence (P35372 whole entry): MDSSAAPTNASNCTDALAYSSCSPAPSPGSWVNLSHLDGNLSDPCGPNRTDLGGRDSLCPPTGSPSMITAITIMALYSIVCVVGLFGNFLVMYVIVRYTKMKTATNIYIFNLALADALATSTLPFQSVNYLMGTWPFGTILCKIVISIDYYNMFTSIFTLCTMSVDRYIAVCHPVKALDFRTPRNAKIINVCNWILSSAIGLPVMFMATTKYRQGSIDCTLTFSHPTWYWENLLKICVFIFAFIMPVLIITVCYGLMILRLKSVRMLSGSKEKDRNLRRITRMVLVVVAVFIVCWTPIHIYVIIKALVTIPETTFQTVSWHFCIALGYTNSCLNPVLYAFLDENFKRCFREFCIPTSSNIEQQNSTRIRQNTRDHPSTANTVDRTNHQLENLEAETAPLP
- EXPERIMENT: Agonist activity at mu opioid receptor (unknown origin) expressed in CHO cells

{"SUBSTANCE SMILES": "Cc1ccc(C[C@H](N)/C(F)=C/CC(=O)NCC(=O)N[C@@H](Cc2ccccc2)C(=O)N[C@@H](CC(C)C)C(=O)O)cc1", "EC50 [nM]": 60}

----------
- TARGET DESC: Kappa-type opioid receptor (Homo sapiens, UniProt P41145)
- Sequence (P41145 whole entry): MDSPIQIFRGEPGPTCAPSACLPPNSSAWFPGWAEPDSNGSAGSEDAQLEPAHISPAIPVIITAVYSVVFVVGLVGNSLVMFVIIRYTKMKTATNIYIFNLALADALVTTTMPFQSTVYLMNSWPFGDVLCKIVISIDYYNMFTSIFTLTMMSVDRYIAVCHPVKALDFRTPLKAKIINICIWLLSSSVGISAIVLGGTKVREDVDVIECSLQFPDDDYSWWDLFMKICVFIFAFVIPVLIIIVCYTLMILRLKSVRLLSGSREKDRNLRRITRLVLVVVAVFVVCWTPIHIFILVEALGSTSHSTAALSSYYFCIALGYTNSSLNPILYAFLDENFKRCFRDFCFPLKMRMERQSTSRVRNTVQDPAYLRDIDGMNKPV
- EXPERIMENT: Agonist activity at kappa opioid receptor (unknown origin) expressed in CHO cells
pEC50: −log10 of the molar value.
RECORDED ENDPOINT: pEC50

{"SUBSTANCE SMILES": "Cc1ccc(C[C@H](N)/C(F)=C/CC(=O)NCC(=O)N[C@@H](Cc2ccccc2)C(=O)N[C@@H](CC(C)C)C(=O)O)cc1", "RECORDED ENDPOINT": "pEC50", "RESULT": "< 8.00"}

----------
- EXPERIMENT: Half life in human serum
- Format: ADME, cell-free

{"SUBSTANCE SMILES": "CC(C)C[C@H](NC(=O)[C@H](Cc1ccccc1)NC(=O)CNC1(CNC(=O)[C@@H](N)Cc2ccc(O)cc2)COC1)C(=O)O.O=C(O)C(F)(F)F", "half-life": "18 h"}
{"SUBSTANCE SMILES": "CC(C)C[C@H](NC(=O)[C@H](Cc1ccccc1)NC1(CNC(=O)CNC(=O)[C@@H](N)Cc2ccc(O)cc2)COC1)C(=O)O.O=C(O)C(F)(F)F", "half-life": "0.25 h"}
{"SUBSTANCE SMILES": "CC(C)C[C@H](NC1([C@H](Cc2ccccc2)NC(=O)CNC(=O)CNC(=O)[C@@H](N)Cc2ccc(O)cc2)COC1)C(=O)O.O=C(O)C(F)(F)F", "half-life": "0.433 h"}
{"SUBSTANCE SMILES": "CC(C)C[C@H](NC(=O)[C@H](Cc1ccccc1)NC(=O)CNC(=O)CNC1([C@@H](N)Cc2ccc(O)cc2)COC1)C(=O)O.O=C(O)C(F)(F)F", "half-life": "3.2 h"}

----------
Dear all, this message contains EC50 results, target or system Delta-type opioid receptor (Homo sapiens).
RECORDED ENDPOINT: EC50 (nM)

{"COMPOUND": "CC(C)C[C@H](NC(=O)[C@@H](/C=C(\\F)CNC(=O)CNC(=O)[C@@H](N)Cc1ccc(O)cc1)Cc1ccccc1)C(=O)O", "RECORDED ENDPOINT": "EC50", "CMP": "=", "NUMERIC READOUT": 43}
{"COMPOUND": "CC(C)C[C@H](NC(=O)[C@H](Cc1ccccc1)NC(=O)CNC(=O)CNC([C@@H](N)Cc1ccc(O)cc1)C(F)(F)F)C(=O)O (mixture of isomers)", "RECORDED ENDPOINT": "EC50", "CMP": ">", "NUMERIC READOUT": 10}
{"COMPOUND": "CC(C)C[C@H](NC(=O)[C@@H](/C=C/CNC(=O)CNC(=O)[C@@H](N)Cc1ccc(O)cc1)Cc1ccccc1)C(=O)O", "RECORDED ENDPOINT": "EC50", "CMP": "=", "NUMERIC READOUT": 587}
{"COMPOUND": "Cc1ccc(C[C@H](N)/C(F)=C/CC(=O)NCC(=O)N[C@@H](Cc2ccccc2)C(=O)N[C@@H](CC(C)C)C(=O)O)cc1", "RECORDED ENDPOINT": "EC50", "CMP": "=", "NUMERIC READOUT": 5}
